The values you see were collected from the supplement of paper PMC9170038.

- Test system: K4 kissing-loop RNA reporter;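 also: bound reporter read as fluorescence of individual clusters on recovered sequencing chips by microscopy, with normalized cluster intensities fitted with a binding model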
- Test details: apparent KD of K4 kissing-loop reporter; higher = weaker reporter binding
- Run conditions: Eterna round: R107; input ligand: none
Binary classification by apparent KD of K4 kissing-loop reporter, with 200 nM as an inclusive lower bound for Y; all other cases are N.

Solved entries (count: 3):
| Item sequence | Classification |
| --- | --- |
| UCCUUUGUUGCCAGUGAUGUUGGACAGGAAGGAGCGGGCAUAAGCCCAGGUAGGUCGCCUGUCAACUUUCUUAUAGCCCUAAGGU [KL-XArg-A16] | Y |
| AAAGUGUCAGCACGAGUGAUGUUCGUGGAUACCAGCCUCGAUAAAGGCCCUUGGCAGCCGAAAAGUCAAGGGCUGGCACAUAAAA [KL-XTheo-A11] | Y |
| AAUAAAAUCACGGCCGCCACUGAAUAAUUACAAAGUAGUGAUGUUACUUUACAUAUCUUAUUUAACAGGACCGGGUGAAUAUUUA [JR_ExcTryptoB_Sub007] | N |

Q: Is it the case that ACGCGCGUGCGCUGGAAAGCGCACGCGCGUCGAGGACCGGUACGGCCGCCACUCGCUCGCGCCGAGUGAUGUUCGGCCGGCGAAC [#2 SameState - Tryptophan_A Attempt #2 (HarryS)] has apparent KD of K4 kissing-loop reporter reaching or exceeding 200 nM?
A: Y

Q: Is it the case that UGGAUAUAGUGAUGUUAUAUAGAGAUGGAUACCAGCUAAGAGAAUGGCCCUUGGCAGCCGAAAGAAGUAUCAUUAGAGAAGAAUG [ExTheophyl.Ag] has apparent KD of K4 kissing-loop reporter reaching or exceeding 200 nM?
A: Y

Q: Is it the case that AAACAACUUGACGAUACCAGCUUACUCGGCAAGCCAGUGAUGUUGGUGAAAAGGAGUCAAAGCCCUUGGCAGCGUCGAAGGUCUG [Raatarerin] has apparent KD of K4 kissing-loop reporter reaching or exceeding 200 nM?
A: Y
